All values here come from patent US20050282739A1.

# EXPERIMENTAL SYSTEM: bombesin receptor of rat brain membranes (rat)
# METHOD DESCRIPTION: 125I-Bombesin competition, rat brain membranes
Square brackets hold non-standard residues; d marks the D form. Ends that are not written are not given here. pGlu = O=C1CC[C@@H](C(=O)O)N1; Nle = CCCC[C@H](N)C(=O)O
MEASURED QUANTITY: % Inhibition (%)

>  <BINDER>
[pGlu]QRLGNQCWAVGHL[Nle]-NH2 (also: Re(V)=O N3S1 chelate at Cys8 (from ReOCl3(PPh3)2)) [metallopeptide 6-8]

>  <MEASURED QUANTITY>
% Inhibition

>  <NUMBER>
75

$$$$

P = [dF]QCWAVGHLL-NH2 (not fully specified (bridges); printed as D-Phe-Gln-Cys-Trp-Ala-Val-Gly-His-Leu-Leu-NH2; also: Re(V)=O chelate (N3S1) at Cys3) [metallopeptide 8-8]
Q = [dF]QWACGHLL-NH2 (not fully specified (bridges); printed as D-Phe-Gln-Trp-Ala-Cys-Gly-His-Leu-Leu-NH2; also: Re(V)=O complexed at Cys (N3S1 chelate)) [metallopeptide 9-5]
R = [dF]QWCVHLL-NH2 (bridge (positions not given here) via ReOCl3(PPh3)2; also: oxorhenium(V) N3S1 tetradentate complex at Cys 4) [metallopeptide 12-6]
Req: Order each entry by recorded % Inhibition, climbing from the minimum. Answer format: list of labels, ordered as asked.
Resp: R, Q, P
(R: 10%, Q: 17%, P: 62%)
